measurementDescription: Microsome clearance assay, human
Type: in vitro ADME
testParameters: human liver microsomes, 0.5 mg/ml protein, 5 μM, 1 mM NADPH, 60 minutes
resultType: Human Liver Microsome Clint (μL/min/mg protein)
Enter your answer as a number in μL/min/mg protein; do not include the unit.

Asked: Look at this molecule and give its reported Human Liver Microsome Clint (μL/min/mg protein). Cc1c(C(=O)O)n2c3ccc(Cl)c(c13)-c1c(nn(C)c1C)CSCc1cc(n(C)n1)CSc1cc(c3ccccc3c1)OCCC2 [Cpd. No. 5]
Given back: 15.8

Asked: Look at this molecule and give its reported Human Liver Microsome Clint (μL/min/mg protein). Cc1c(C(=O)O)n2c3ccc(Cl)c(c13)-c1c(nn(C)c1C)CSCc1cc(n(C)n1)CSc1cc(c3ccc(F)cc3c1)OCCC2 [Cpd. No. 14]
Given back: 5.0

---

Each record here notes measured microsomal CLint at 5 μM.
measurementDescription: Microsome clearance assay, human
Assay type: in vitro ADME
testParameters: human, pooled liver microsomes, pH 7.4, human liver microsomes, 0.5 mg/ml protein, 1 mM NADPH, 60 minutes, read-out: Human Liver Microsome Clint (μL/min/mg protein)
// units = µL/min/mg; emit number, no label

Example cases with answers are listed next.
Cc1c(C(=O)O)n2c3ccc(Cl)c(c13)-c1c(nn(C)c1C(F)F)CSCc1cc(n(C)n1)CSc1cc(c3ccc(F)cc3c1)OCCC2; 22.2
CC(=O)NCc1c(C(=O)O)n2c3ccc(Cl)c(c13)-c1c(nn(C)c1C)CSCc1cc(n(C)n1)CSc1cc(c3ccccc3c1)OCCC2; 3.6
Cc1c(C(=O)O)n2c3ccc(Cl)c(c13)-c1c(nn3c1COCC3)CN(S(=O)(=O)c1ccccc1)Cc1cc(n(C)n1)CSc1cc(c3ccc(F)cc3c1)OCCC2; 21.4
Cc1c(C(=O)O)n2c3ccc(Cl)c(c13)-c1c(nn3c1COCC3)CN(CCNS(C)(=O)=O)Cc1cc(n(C)n1)CSc1cc(c3ccc(F)cc3c1)OCCC2; 7.4
Cc1nn(C)c2c1-c1c(Cl)ccc3c1c(C)c(C(=O)O)n3CCCOc1cc(cc3cc(F)ccc13)SCc1cc(nn1C)CSC2; 42.8

Moving on to the next compound.
Asked: Quick one: microsomal CLint at 5 μM of Cc1c(C(=O)O)n2c3ccc(Cl)c(c13)-c1c(nn(C)c1C)CN(Cc1ncco1)Cc1cc(n(C)n1)CSc1cc(c3ccc(F)cc3c1)OCCC2 ?
Given back: 28.4

---

measurementDescription: Microsome clearance assay, mouse
Type: in vitro ADME
testParameters: male, CD-1, mouse, pooled liver microsomes, pH 7.4, mouse liver microsomes, 0.5 mg/ml protein, 1 mM NADPH, 60 minutes, read-out: Mouse Liver Microsome Clint (μL/min/mg protein)
resultType: microsomal CLint at 5 μM (µL/min/mg)
Expressed in µL/min/mg, but write only the number.

CC(=O)NCc1c(C(=O)O)n2c3ccc(Cl)c(c13)-c1c(nn(C)c1C)CSCc1cc(n(C)n1)CSc1cc(c3ccccc3c1)OCCC2; 13.8

Asked: Item CNC(=O)Cn1nc(C)c2c1CSCc1cc(n(C)n1)CSc1cc(c3ccccc3c1)OCCCn1c(C(=O)O)c(C)c3c-2c(Cl)ccc31 has what recorded microsomal CLint at 5 μM?
Given back: 41.2

Asked: Can you look up the measured microsomal CLint at 5 μM of Cc1c(C(=O)O)n2c3ccc(Cl)c(c13)-c1c(nn3c1CCC3)CSCc1cc(n(C)n1)CSc1cc(c3ccc(F)cc3c1)OCCC2 for me?
Given back: 53

Asked: Entry COCCn1nc2c(c1C)-c1c(Cl)ccc3c1c(C)c(C(=O)O)n3CCCOc1cc(cc3ccccc13)SCc1cc(nn1C)CSC2 : reported microsomal CLint at 5 μM = ?
Given back: 145

Asked: Entry CCc1c(C(=O)O)n2c3ccc(Cl)c(c13)-c1c(nn(C)c1C)CSCc1cc(n(C)n1)CSc1cc(c3ccccc3c1)OCCC2 has what microsomal CLint at 5 μM?
Given back: 325
